Test system: HCV replicon (HCV 1b-377-neo replicon cells, Huh7)
Experiment: HCV replicon cell-based FRET assay
Conditions: Hepatitis C virus, Huh-7
reported.property: EC50

* CC(C)(C)OC(=O)N[C@H]1CN(S(=O)(=O)c2ccccc2[N+](=O)[O-])CCC/C=C\[C@@H]2C[C@@]2(C(=O)NS(=O)(=O)C2CC2)NC(=O)[C@@H]2C[C@@H](Oc3nccc4ccccc34)CN2C1=O | 50 to 500 nM
* COc1ccc2c(OC3CC4C(=O)NC5(C(=O)NS(=O)(=O)C6CC6)CC5C=CCCCSCC(N)C(=O)N4C3)nccc2c1 (stereo not drawn) | 50 to 500 nM
* COC(=O)N1CCC/C=C\[C@@H]2C[C@@]2(C(=O)NS(=O)(=O)C2CC2)NC(=O)[C@@H]2C[C@@H](Oc3nccc4ccccc34)CN2C(=O)[C@@H](NC(=O)OC(C)(C)C)C1 | 50 to 500 nM
* COc1ccc2c(OC3CC4C(=O)NC5(C(=O)NS(=O)(=O)C6CC6)CC5C=CCCCSCC(NC(=O)OC(C)C)C(=O)N4C3)nccc2c1 (stereo not drawn) | < 50 nM
* COc1ccc2c(OC3CC4C(=O)NC5(C(=O)NS(=O)(=O)C6CC6)CC5C=CCCCOCC(NC(=O)OC(C)C)C(=O)N4C3)nccc2c1 (stereo not drawn) | < 50 nM
* COc1ccc2c(OC3CC4C(=O)NC5(C(=O)NS(=O)(=O)C6CC6)CC5C=CCOCCCC(NC(=O)NC(C)(C)C)C(=O)N4C3)nccc2c1 (stereo not drawn) | < 50 nM

* * *

Target: HCV NS3/4A protease complex, BMS strain (genotype 1a) (UniProt P27958, C1454S/C1711G, species not given/STRAIN_BMS)
Construct: b1001: DNA encoding the recombinant HCV NS3/4A protease complex (amino acids 1027 to 1711) ... a three-lysine solubilizing tail was added at the 3′-end of the NS4A coding region; fused on or other part: Three-lysine solubilising tail at the C-terminus of NS4A; A His tag is implied by the pET21b vector and Ni-NTA purification
Experiment: Recombinant HCV NS3/4A protease complex FRET peptide assay, BMS strain
Type: biochemical
Settings: read-out: IC50 against the BMS strain NS3/4A protease in the enzyme assay; BMS strain
Excerpt: Recombinant HCV NS3/4A Protease Complex FRET Peptide Assay The purpose of this in vitro assay was to measure the inhibition of HCV NS3 protease complexes, derived from the BMS strain, H77C strain or J416S strain, as described below, by compounds of the present invention. This assay provides an indication of how effective compounds of the present invention would be in inhibiting HCV proteolytic activity. Serum from an HCV-infected patient was obtained from Dr. T. Wright, San Francisco Hospital. […]
pIC50: −log10 of the molar value.
reported.property: pIC50

* CC(C)(C)OC(=O)N[C@H]1CCCCC/C=C\[C@@H]2C[C@@]2(C(=O)NS(C)(=O)=O)NC(=O)[C@@H]2C[C@@H](Oc3nccc4ccccc34)CN2C1=O | 7.59

* * *

Target: human liver cathepsin B (Homo sapiens)
pIC50: −log10 of the molar value.
reported.property: pIC50

• CC(C)(C)OC(=O)N[C@H]1CCCCC/C=C\[C@@H]2C[C@@]2(C(=O)NS(C)(=O)=O)NC(=O)[C@@H]2C[C@@H](Oc3nccc4ccccc34)CN2C1=O = < 4.00

* * *

# maps each entry to its pEC50
System: HCV replicon (HCV 1b-377-neo replicon cells, Huh7)
Assay: HCV replicon cell-based FRET assay
Details: Hepatitis C virus, Huh-7
pEC50: −log10 of the molar value.
reported.property: pEC50

* COc1ccc2c(OC3CC4C(=O)NC5(C(=O)NS(=O)(=O)C6CC6)CC5C=CCOCCCC(NC(=S)NC5CC5)C(=O)N4C3)nc(-c3ccccc3)cc2c1 (stereo not drawn) [Compound 104] | 6.30 to 7.30
* CC(C)(C)OC(=O)NC1CSCCCC=CC2CC2(C(=O)NS(=O)(=O)C2CC2)NC(=O)C2CC(Oc3nccc4c(Cl)cccc34)CN2C1=O (stereo not drawn) [Compound 78] | > 7.30
* COc1ccc2c(OC3CC4C(=O)NC5(C(=O)O)CC5C=CCCCCC(NC(=O)OC(C)(C)C)C(=O)N4C3)nccc2c1 (stereo not drawn) [Compound 143] | 5.30 to 6.30

* * *

Test system: HCV replicon (HCV 1b-377-neo replicon cells, Huh7)
Test: HCV replicon cell-based FRET assay
Conditions: Hepatitis C virus, Huh-7
pEC50: −log10 of the molar value.
# maps each entry to its pEC50
reported.property: pEC50

- COc1ccc2c(O[C@@H]3C[C@H]4C(=O)N[C@]5(C(=O)O)C[C@H]5/C=C\CCCO[C@H](C)[C@H](NC(=O)OC(C)(C)C)C(=O)N4C3)nccc2c1: 4.30 to 5.30
- CC(C)(C)OC(=O)N[C@H]1CCCCC/C=C\[C@@H]2C[C@@]2(C(=O)NS(=O)(=O)C2CC2)NC(=O)[C@@H]2C[C@@H](Oc3nccc4ccccc34)CN2C1=O: > 7.30
- O=CNC1CCCCCC=CC2CC2(C(=O)NS(=O)(=O)C2CC2)NC(=O)C2CC(Oc3nccc4ccccc34)CN2C1=O (centres unmarked): 6.30 to 7.30
- CC(C)(C)OC(=O)N[C@H]1CCCCC/C=C\[C@@H]2C[C@@]2(C(=O)NS(=O)(=O)C2CC2)NC(=O)[C@@H]2C[C@@H](Oc3nc(-c4ccccc4)cc4ccccc34)CN2C1=O: > 7.30
- COc1ccc2c(OC3CC4C(=O)NC5(C(=O)NS(=O)(=O)C6CC6)CC5C=CCOCCCC(NC(=O)N5CCCC5)C(=O)N4C3)nc(-c3ccccc3)cc2c1 (centres unmarked): > 7.30

* * *

Test system: HCV replicon (HCV 1b-377-neo replicon cells, Huh7)
Experiment: HCV replicon cell-based FRET assay
Settings: Hepatitis C virus, Huh-7
pEC50: −log10 of the molar value.
reported.property: pEC50

* CCC1(S(=O)(=O)NC(=O)C23CC2C=CCCCOC(C)C(NC(=O)NC2CCCC2)C(=O)N2CC(Oc4nccc5cc(OC)ccc45)CC2C(=O)N3)CC1 (centres unmarked) | 6.30 to 7.30
* O=C(CC1CC1)NC1CCCCCC=CC2CC2(C(=O)NS(=O)(=O)C2CC2)NC(=O)C2CC(Oc3nccc4ccccc34)CN2C1=O (centres unmarked) | > 7.30
* CCC1(S(=O)(=O)NC(=O)C23CC2C=CCCCSCC(NC(=O)OC(C)C)C(=O)N2CC(Oc4nccc5cc(OC)ccc45)CC2C(=O)N3)CC1 (centres unmarked) | > 7.30
* O=C(N[C@H]1CCCCC/C=C\[C@@H]2C[C@@]2(C(=O)NS(=O)(=O)C2CC2)NC(=O)[C@@H]2C[C@@H](Oc3nccc4ccccc34)CN2C1=O)OC1CCOCC1 | > 7.30
* CC(C)(OC(=O)NC1CCCCCC=CC2CC2(C(=O)NS(=O)(=O)C2CC2)NC(=O)C2CC(Oc3nccc4ccccc34)CN2C1=O)C(F)(F)F (centres unmarked) | > 7.30
* COc1ccc2c(OC3CC4C(=O)NC5(C(=O)NS(=O)(=O)C6CC6)CC5C=CCOCCCC(NC(=O)NC(C)(C)C)C(=O)N4C3)nc(-c3ccccc3)cc2c1 (centres unmarked) | > 7.30
* COc1ccc2c(OC3CC4C(=O)NC5(C(=O)NS(=O)(=O)C6CC6)CC5C=CCCCCCC(NC(=O)OC(C)(C)C)C(=O)N4C3)nccc2c1F (centres unmarked) | > 7.30
* CC(C)(CCl)OC(=O)NC1CCCCCC=CC2CC2(C(=O)NS(=O)(=O)C2CC2)NC(=O)C2CC(Oc3nccc4ccccc34)CN2C1=O (centres unmarked) | > 7.30
* COc1ccc2c(OC3CC4C(=O)NC5(C(=O)NS(=O)(=O)C6CC6)CC5C=CCCCOCC(NC(=O)N5CCCC5)C(=O)N4C3)nc(-c3ccc(N(C)C)cc3)cc2c1 (centres unmarked) | > 7.30
* CCC1(S(=O)(=O)NC(=O)C23CC2C=CCCCOC(C)C(NC(=O)OCC(C)(C)C)C(=O)N2CC(Oc4nccc5cc(OC)ccc45)CC2C(=O)N3)CC1 (centres unmarked) | 6.30 to 7.30
* CC(C)(C)COC(=O)N[C@H]1CCCCC/C=C\[C@@H]2C[C@@]2(C(=O)NS(=O)(=O)C2CC2)NC(=O)[C@@H]2C[C@@H](Oc3nccc4ccccc34)CN2C1=O | > 7.30

* * *

System: HCV replicon
Assay: Two-drug combination matrix studies in HCV replicon system, Universal Response Surface Approach (URSA)
Format: cell-based
Settings: Hepatitis C virus, matrix study with NS5B inhibitor, Expt 1 (Table 11)
Description: In addition to the combination index approach, above, the Universal Response Surface Approach (URSA) was also used to assess the antiviral effects of combinations of NS5A or NS5B inhibitors with the NS3 protease inhibitor. […] Effects on replication were assessed in the HCV replicon system as described above. […] The interaction of the two drugs was assessed by using non-linear regression with a bisection algorithm. […]
pEC50: −log10 of the molar value.
reported.property: pEC50

- COc1ccc2c(OC3CC4C(=O)NC5(C(=O)NS(=O)(=O)C6CC6)CC5C=CCOCCCC(NC(=O)OC(C)(C)C)C(=O)N4C3)nccc2c1 (stereo not shown): 7.82

The values you see were collected from patent US7173004B2.
